# ASSAYED TARGET: PI3-kinase p110-alpha/p85-alpha (Homo sapiens, UniProt P42336)
# Sequence (P27986 whole entry, the tested form may be a part): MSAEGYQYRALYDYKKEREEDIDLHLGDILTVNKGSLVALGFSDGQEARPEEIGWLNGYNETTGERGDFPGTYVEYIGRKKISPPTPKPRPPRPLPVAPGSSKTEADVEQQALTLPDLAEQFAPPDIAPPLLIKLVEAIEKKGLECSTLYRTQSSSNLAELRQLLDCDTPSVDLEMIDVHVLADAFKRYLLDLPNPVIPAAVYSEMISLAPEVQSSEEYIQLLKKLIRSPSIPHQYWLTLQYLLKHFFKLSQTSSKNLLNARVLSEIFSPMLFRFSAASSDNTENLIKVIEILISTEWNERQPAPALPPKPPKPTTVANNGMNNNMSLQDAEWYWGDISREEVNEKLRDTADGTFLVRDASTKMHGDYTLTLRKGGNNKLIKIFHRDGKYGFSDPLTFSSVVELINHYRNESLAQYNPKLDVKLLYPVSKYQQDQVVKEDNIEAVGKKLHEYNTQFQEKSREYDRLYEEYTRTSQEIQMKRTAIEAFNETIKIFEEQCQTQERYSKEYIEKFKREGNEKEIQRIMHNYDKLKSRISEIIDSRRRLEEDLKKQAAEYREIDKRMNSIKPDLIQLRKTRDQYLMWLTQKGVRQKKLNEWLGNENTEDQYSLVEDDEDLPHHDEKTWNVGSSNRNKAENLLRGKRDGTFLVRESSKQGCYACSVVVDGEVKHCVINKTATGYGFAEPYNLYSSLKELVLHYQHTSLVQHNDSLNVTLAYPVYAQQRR
# Sequence (P42336 whole entry, the tested form may be a part): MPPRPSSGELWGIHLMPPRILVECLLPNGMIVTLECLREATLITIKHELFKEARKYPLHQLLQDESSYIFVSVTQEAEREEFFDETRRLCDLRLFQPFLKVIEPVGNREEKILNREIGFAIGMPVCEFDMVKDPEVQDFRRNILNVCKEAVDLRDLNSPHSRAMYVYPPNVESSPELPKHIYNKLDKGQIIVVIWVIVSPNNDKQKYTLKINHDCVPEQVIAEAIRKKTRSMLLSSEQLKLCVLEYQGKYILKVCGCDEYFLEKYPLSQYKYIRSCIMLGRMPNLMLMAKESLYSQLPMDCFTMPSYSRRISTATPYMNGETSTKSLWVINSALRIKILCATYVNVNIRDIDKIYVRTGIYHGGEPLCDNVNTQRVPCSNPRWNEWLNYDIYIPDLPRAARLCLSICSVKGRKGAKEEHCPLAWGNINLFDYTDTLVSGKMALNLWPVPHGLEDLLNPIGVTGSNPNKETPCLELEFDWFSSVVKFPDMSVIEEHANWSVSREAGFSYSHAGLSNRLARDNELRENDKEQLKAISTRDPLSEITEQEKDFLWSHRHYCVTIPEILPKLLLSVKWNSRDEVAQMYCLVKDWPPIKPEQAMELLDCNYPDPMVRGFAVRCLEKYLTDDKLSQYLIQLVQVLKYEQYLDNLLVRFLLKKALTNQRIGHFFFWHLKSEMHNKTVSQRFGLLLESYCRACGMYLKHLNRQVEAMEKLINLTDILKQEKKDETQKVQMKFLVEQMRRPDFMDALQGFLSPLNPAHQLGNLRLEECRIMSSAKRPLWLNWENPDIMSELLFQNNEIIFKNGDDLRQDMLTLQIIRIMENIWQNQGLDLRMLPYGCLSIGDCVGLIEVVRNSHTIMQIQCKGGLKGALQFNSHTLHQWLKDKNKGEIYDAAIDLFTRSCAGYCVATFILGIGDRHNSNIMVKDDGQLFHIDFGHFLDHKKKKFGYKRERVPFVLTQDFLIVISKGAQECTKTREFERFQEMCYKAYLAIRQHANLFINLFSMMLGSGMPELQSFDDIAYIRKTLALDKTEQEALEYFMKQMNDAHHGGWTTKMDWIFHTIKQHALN
# EXPERIMENT SUMMARY: Biochemical Assay: PI3KA_FL: Genes encoding for full length p110alpha and p85alpha subunits of PI3Kalpha complex were subcloned from existing constructs into pFASTBAC Dual vector (Life Technologies, Carlsbad, Calif.) using standard cloning procedures. Gene encoding p110alpha subunit was subcloned into polyhedrine promoter while gene encoding p85alpha subunit was subcloned into p10 promoter. Additionally, sequence encoding for histidine tag and Tobacco Etch Virus ("TEV") cleavage site preceded p110alpha ORF (Open Reading Frame). The biochemical assays of kinase activity of full-length PI3Kalpha (full-length p110alpha/p85a) or truncated PI3Kalpha (p110alpha/iSH2 p85a) were conducted using a fluorescence polarization format similar to the procedure of Yuan J., et al., (2011) PF-04691502, a Potent and Selective Oral Inhibitor of PI3K and mTOR Kinases with Antitumor Activity, Mol Cancer Ther. 10, 2189-2199. The enzymatic reactions were conducted in 50 uL volumes in 96-well plates.
READOUT: Ki (nM)
Please give a number only; it is taken to be in nM.

For reference, reported Ki for `CC(=O)N[C@H]1C(C)(C)[C@H](N2CCc3c(-c4cnc(N)nc4)nc(N4CCOCC4)nc32)C1(C)C` stands at 1.14
